meta.source: paper doi:10.64898/2025.12.19.695307

# systemUnderTest: SARS-CoV-2 Omicron BF.7 RBD (SARS-CoV-2 Omicron BF.7, L452R)
# protocolText: BLI
pKd: −log10 of the molar value.
parameter: pKd

Enquiry: May I ask what pKd has been recorded for C092 (antibody, V domains shown) VH: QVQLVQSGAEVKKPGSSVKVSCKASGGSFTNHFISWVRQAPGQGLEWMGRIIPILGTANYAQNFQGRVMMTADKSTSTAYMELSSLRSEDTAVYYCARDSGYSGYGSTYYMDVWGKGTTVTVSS VL: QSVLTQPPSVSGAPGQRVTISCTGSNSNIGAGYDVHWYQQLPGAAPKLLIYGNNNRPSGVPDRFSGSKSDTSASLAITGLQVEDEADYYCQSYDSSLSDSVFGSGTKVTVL ?
Return: > 8.68
